target: Cytochrome P450 1A2 (Homo sapiens, UniProt P05177); assay: CYP1A2 Inhibition Assay
Sequence (P05177 whole entry): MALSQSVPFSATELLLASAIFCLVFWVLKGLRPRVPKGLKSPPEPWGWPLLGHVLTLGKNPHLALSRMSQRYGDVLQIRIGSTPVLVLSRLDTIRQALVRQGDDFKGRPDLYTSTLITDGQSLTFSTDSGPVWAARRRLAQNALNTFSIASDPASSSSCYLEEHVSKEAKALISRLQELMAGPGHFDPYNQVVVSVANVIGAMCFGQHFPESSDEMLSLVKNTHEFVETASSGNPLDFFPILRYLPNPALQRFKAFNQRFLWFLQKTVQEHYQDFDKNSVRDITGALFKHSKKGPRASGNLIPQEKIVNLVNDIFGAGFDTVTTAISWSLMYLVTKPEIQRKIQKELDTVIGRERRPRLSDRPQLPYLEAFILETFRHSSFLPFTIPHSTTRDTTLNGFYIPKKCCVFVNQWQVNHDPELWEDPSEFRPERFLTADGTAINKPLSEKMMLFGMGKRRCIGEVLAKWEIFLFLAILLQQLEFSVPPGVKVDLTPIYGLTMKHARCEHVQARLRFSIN
QUANTITY NAME: IC50
Give your result as the value with the unit written after it.

Query block: Entry CC(C)(C)CN1c2cccc(O)c2C(=O)CC1c1cccc(O)c1 (stereo unspecified) [US11938127, Compound KCI838] needs its IC50 filled in; supply it.
Result block: 2920 nM
